Target: T1, Recombinant Human B7-H3 Fc chimera Protein (Rndsystem, Cat #1027-B3-100) (human, UniProt Q5ZPR3 29-245)
T1 chain: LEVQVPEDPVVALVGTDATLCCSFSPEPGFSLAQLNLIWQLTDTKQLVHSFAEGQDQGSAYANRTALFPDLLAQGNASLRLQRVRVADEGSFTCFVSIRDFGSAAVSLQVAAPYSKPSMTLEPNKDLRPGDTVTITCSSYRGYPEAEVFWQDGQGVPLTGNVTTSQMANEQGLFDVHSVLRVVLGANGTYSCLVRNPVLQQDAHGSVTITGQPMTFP
Assay: ELISA
RECORDED METRIC: EC50 (nM)

INSERT INTO results (binder, recorded_metric, experimental_value) VALUES
  ('#9 antibody (antibody, V domains shown) VH: EVQLLESGGGLVQPGGSLRLSCAASGFTFSSYAMNWVRQAPGKGLEWVSTISGSGGQTYYADSVKGRFTISRDNSKNTLYLQMNSLRAEDTAVYYCARWRSIWAFDYWGQGTLVTVSS VL: QSVLTQPPSASGTPGQRVTISCSDNNIGSKSVHWYQQLPGTAPKLLIYDNNKRPSGVPDRFSGSKSGTSASLAISGLRSEDEADYYCGTWDDSLSGPVFGGGTKLTVL', 'EC50', 1.1),
  ('#3 antibody (antibody, V domains shown) VH: EVQLLESGGGLVQPGGSLRLSCAASGFTFSTYYMTWVRQAPGKGLEWVSIINPRGGSTSYAEKFQGRFTISRDNSKNTLYLQMNSLRAEDTAVYYCARWNLGMDVWGQGTLVTVSS VL: EIVLTQSPGTLSLSPGERATLSCRVSQSISSYLNWYQQKPGQAPRLLIYDASHRATGIPDRFSGSGSGTDFTLTISRLEPEDFAVYYCQQYYAPSVTFGQGTKVEIK', 'EC50', 1.1),
  ('#4 antibody (antibody, V domains shown) VH: EVQLLESGGGLVQPGGSLRLSCAASGFTFSSYGMHWVRQAPGKGLEWVSAISGSGTSIYYANSVKSRFTISRDNSKNTLYLQMNSLRAEDTAVYYCARGAGWFDYWGQGTLVTVSS VL: QSVLTQPPSASGTPGQRVTISCSGSTSNIGSNTVNWYQQLPGTAPKLLIYGKNIRPNGVPDRFSGSKSGTSASLAISGLHSEDEADYYCQSYDSSLSGWVFGGGTKLTVL', 'EC50', 0.55);
